target_desc: AHNAK1, Q09666
Sequence (Q09666 4-100): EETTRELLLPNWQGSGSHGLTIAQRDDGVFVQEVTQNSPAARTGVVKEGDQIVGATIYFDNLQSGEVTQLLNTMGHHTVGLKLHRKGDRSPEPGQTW
measurement_notes: holdup assay
Parameters: key: below the threshold = too weak to quantify, mostly under pKd 3.1 to 4
assay_setup: plain residues with an end cap or a label only (N-terminal biotin on a linker: ado-ado)
measured_quantity: pKd

# binder, assay_value
data = [
    ("AEASVACSLC [PTGIR, P43119]", "below the threshold"),
    ("PSHPRLQTHV [KIRREL2, Q6UWL6]", "below the threshold"),
    ("MQHQRTHTRV [ZSCAN30, Q86W11]", "below the threshold"),
    ("EIPAQSPTCV [FZD10, Q9ULW2]", 3.57),
    ("NTLNRKTTPV [CACNG8, Q8WXS5]", "below the threshold"),
    ("QRPYRRGSEI [KCNJ18, B7U540]", "below the threshold"),
    ("NVYGIESVKI [GRIA2, P42262]", "below the threshold"),
]

pKd in this record for EDGESWEYQI [TRPV6, Q9H1D0] : below the threshold

Cited source: paper PMC9482650
